# System: T-47D breast
# experimentalDetails: NCI tumour cell line growth inhibition, 48 h; in the data active = GI50 below about 0.43 µM; inactive = the rest
Where a SMILES comes first, the peptide text is derived from it. The star is where a group is joined. Palmitoyl = CCCCCCCCCCCCCCCC(=O)*
Outcome (select one): 1 (yes) for active, 0 (no) for inactive

Example cases with answers are listed next.
{"columns": ["compound", "assignedLabel"],
 "data": [
  ["C=C(C)[C@@H]1CC[C@]2(CN)CC[C@]3(C)[C@H](CC[C@@H]4[C@@]5(C)CCCNC(C)(C)[C@@H]5CC[C@]43C)[C@@H]12", "0 (no)"],
  ["COc1ccc(-c2cc(=O)oc3c4c(ccc23)OCN(Cc2ccc(F)cc2)C4)cc1", "0 (no)"],
  ["NCCCn1c2c(c3ccc([N+](=O)[O-])cc3c1=O)C(=O)c1cc(I)ccc1-2", "1 (yes)"],
  ["COc1cccc2c1O/C(=C\\c1ccc([N+](=O)[O-])s1)C2=O", "0 (no)"],
  ["COC(=O)c1c2c(c(C)[n+]([O-])c1C)C(=O)C(NCc1ccc(Br)cc1)=CC2=O", "0 (no)"]
]}

Q) In this assay, the call recorded for CCCCCCCCCCCCCCCC(=O)N1CCCC1C(=O)NCC(=O)NC(Cc1ccccc1)C(=O)N1CCCC1C(=O)NC(CO)C(=O)NC(Cc1ccc(O)cc1)C(=O)NC(CCCCN)C(=O)NC(CC(C)C)C(=O)NC(CCCN=C(N)N)C(=O)N1CCCC1C(=O)NCC(N)=O (stereo not drawn) (Palmitoyl-PGFPSYKLRPG-NH2; configuration not given here) was what?
A) 0 (no)

Q) Now consider `CCOC(=O)Nc1c(C)nc2ccccn12` and answer again.
A) 0 (no)

Q) Now consider `CCSc1nc(N=Cc2ccccc2O)c2cn[nH]c2n1` and answer again.
A) 0 (no)
